TARGET_SYSTEM: BCR-ABL kinase (Homo sapiens)
Sequence (P00519 whole entry): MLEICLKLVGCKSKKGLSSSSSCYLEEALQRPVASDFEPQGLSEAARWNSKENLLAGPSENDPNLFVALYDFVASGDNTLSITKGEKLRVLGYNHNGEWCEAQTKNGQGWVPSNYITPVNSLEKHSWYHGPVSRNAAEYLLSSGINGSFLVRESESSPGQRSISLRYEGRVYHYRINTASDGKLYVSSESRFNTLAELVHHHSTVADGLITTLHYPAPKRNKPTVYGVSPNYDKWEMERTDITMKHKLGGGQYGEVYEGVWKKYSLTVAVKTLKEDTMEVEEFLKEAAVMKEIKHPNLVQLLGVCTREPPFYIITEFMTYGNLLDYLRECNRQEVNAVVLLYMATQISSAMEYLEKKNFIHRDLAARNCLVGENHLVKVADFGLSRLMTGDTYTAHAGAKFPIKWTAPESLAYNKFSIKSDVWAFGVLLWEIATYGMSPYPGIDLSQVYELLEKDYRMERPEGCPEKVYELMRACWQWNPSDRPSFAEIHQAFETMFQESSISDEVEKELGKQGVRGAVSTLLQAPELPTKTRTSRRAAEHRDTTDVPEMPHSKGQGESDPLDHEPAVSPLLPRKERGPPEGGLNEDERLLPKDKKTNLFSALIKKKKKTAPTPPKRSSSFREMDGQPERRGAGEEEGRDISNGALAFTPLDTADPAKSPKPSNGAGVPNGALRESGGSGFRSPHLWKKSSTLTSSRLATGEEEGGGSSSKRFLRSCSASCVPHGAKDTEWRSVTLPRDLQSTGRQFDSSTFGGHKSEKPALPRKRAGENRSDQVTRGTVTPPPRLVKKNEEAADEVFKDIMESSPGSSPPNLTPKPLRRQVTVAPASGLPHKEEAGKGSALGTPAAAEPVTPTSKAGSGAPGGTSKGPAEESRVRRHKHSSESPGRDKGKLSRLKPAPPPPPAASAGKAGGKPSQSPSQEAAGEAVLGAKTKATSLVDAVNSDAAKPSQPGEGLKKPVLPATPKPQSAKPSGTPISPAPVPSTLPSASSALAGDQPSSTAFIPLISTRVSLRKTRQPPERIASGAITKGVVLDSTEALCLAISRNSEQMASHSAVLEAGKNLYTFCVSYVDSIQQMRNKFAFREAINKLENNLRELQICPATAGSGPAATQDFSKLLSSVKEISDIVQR
TEST_METHOD_NOTES: FRET-based Z'-Lyte kinase assay
pIC50: −log10 of the molar value.
Quick rule: pIC50 of at least 7 means y, below that means n.

molecule="Cc1ccc(C(=O)Nc2ccc(OCCCCn3ccnc3)c(Br)c2)cc1Nc1nccc(-c2cccnc2)n1 [Compound 1e]" target_system="BCR-ABL kinase (Homo sapiens)" label_value=y
molecule="Cc1ccc(C(=O)Nc2ccc(Br)cc2OCCCCn2ccnc2)cc1Nc1nccc(-c2cccnc2)n1 [Compound 1i]" target_system="BCR-ABL kinase (Homo sapiens)" label_value=n

Challenge: Hello, I need to know if Cc1ccc(OCCCCn2ccnc2)c(NC(=O)c2ccc(C)c(Nc3nccc(-c4cccnc4)n3)c2)c1 [Compound 1j] has measured pIC50 not below 7. Thanks!
Response given: n

Challenge: Hello, I need to know if Cc1ccc(C(=O)Nc2cccc(OCCCCn3ccnc3)c2)cc1Nc1nccc(-c2cccnc2)n1 [Compound 1b] has measured pIC50 not below 7. Thanks!
Response given: n

Challenge: Hello, I need to know if Cc1ccc(C(=O)Nc2cc(OCCCCn3ccnc3)ccc2Br)cc1Nc1nccc(-c2cccnc2)n1 [Compound 1d] has measured pIC50 not below 7. Thanks!
Response given: n

----------
TARGET_SYSTEM: BCR-ABL kinase (Homo sapiens)
TEST_METHOD_NOTES: FRET-based Z'-Lyte kinase assay
PARAMETER: IC50 (µM)
Expressed in µM, but write only the number.

Challenge: What does the data say about its IC50? Entry: Cc1ccc(C(=O)Nc2ccccc2OCCCCn2ccnc2)cc1Nc1nccc(-c2cccnc2)n1
Response given: 14.6

Challenge: What does the data say about its IC50? Entry: Cc1ccc(C(=O)Nc2ccc(Br)c(OCCCCn3ccnc3)c2)cc1Nc1nccc(-c2cccnc2)n1
Response given: 5.21

Challenge: What does the data say about its IC50? Entry: Cc1ccc(C(=O)Nc2cc(OCCCCn3ccnc3)cc(C(F)(F)F)c2)cc1Nc1nccc(-c2cccnc2)n1
Response given: 0.77

----------
TARGET_SYSTEM: HO-1 (Rattus norvegicus, UniProt P06762)
Construct: This microsomal preparation represents the most native (i.e., closest to in vivo) form of HO-1; from tissue; host or cells: rat spleen microsomes (male Sprague-Dawley rats)
Sequence (P06762 whole entry): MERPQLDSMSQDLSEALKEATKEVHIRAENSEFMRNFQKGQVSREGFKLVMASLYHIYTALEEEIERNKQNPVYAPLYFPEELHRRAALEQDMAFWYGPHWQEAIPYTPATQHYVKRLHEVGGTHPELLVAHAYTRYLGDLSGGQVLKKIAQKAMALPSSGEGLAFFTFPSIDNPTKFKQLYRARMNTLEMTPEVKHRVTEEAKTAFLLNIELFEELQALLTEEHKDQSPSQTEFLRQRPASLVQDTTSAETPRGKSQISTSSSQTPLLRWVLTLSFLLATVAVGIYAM
TEST_METHOD_NOTES: HO-1 enzymatic activity in microsomal fraction of rat spleen (bilirubin formation)
Assay type: biochemical
TEST_SETTINGS: experimental HO-1 IC50 repeated in Table 3; read-out: IC50
PARAMETER: IC50 (µM)
Expressed in µM, but write only the number.

# annotated cases, reported IC50 shown
compound="Cc1ccc(C(=O)Nc2ccc(OCCCCn3ccnc3)cc2)cc1Nc1nccc(-c2cccnc2)n1 [Compound 1a]" observed_value=44.8
compound="Cc1ccc(C(=O)Nc2ccccc2OCCCCn2ccnc2)cc1Nc1nccc(-c2cccnc2)n1 [Compound 1c]" observed_value=149
compound="Cc1ccc(C(=O)Nc2cccc(OCCCCn3ccnc3)c2)cc1Nc1nccc(-c2cccnc2)n1 [Compound 1b]" observed_value=64.6

Alright, here's another compound for you.
Challenge: What does the data say about its IC50? Entry: Cc1ccc(C(=O)Nc2ccc(Br)c(OCCCCn3ccnc3)c2)cc1Nc1nccc(-c2cccnc2)n1 [Compound 1f]
Response given: 100

----------
PARAMETER: melting point

mol_smiles=Cc1ccc(C(=O)Nc2cc(OCCCCn3ccnc3)ccc2Br)cc1Nc1nccc(-c2cccnc2)n1 observed_value="69.8 to 72 °C"

Alright, here's another compound for you.
Challenge: What does the data say about its melting point? Entry: Cc1ccc(C(=O)Nc2cccc(OCCCCn3ccnc3)c2)cc1Nc1nccc(-c2cccnc2)n1
Response given: 118 to 120 °C

Each recorded value in this set is attributed to paper PMC9143943.
